- assay_info: clinical
- condition_summary: human, in vivo, iv
endpoint: half-life (days)
Field format: number, assumed days, no unit text.

I have this molecule here, CN[C@H]1C(=O)N[C@@H]2Cc3ccc(cc3)Oc3cc4cc(c3O[C@@H]3O[C@H](C(=O)O)[C@@H](O)[C@H](O)[C@H]3NC(=O)CCCCCCCCC(C)C)Oc3ccc(cc3Cl)[C@@H](O)[C@@H]3NC(=O)[C@H](NC(=O)[C@@H]4NC(=O)[C@@H](NC2=O)c2cc(cc(O)c2Cl)Oc2cc1ccc2O)c1ccc(O)c(c1)-c1c(O[C@H]2O[C@H](CO)[C@@H](O)[C@H](O)[C@@H]2O)cc(O)cc1[C@@H](C(=O)NCCCN(C)C)NC3=O , and I need its recorded half-life.
26.1
